# TARGET SYSTEM: Falcipain 2 (Plasmodium falciparum) (UniProt Q9N6S8)
# Sequence (whole entry): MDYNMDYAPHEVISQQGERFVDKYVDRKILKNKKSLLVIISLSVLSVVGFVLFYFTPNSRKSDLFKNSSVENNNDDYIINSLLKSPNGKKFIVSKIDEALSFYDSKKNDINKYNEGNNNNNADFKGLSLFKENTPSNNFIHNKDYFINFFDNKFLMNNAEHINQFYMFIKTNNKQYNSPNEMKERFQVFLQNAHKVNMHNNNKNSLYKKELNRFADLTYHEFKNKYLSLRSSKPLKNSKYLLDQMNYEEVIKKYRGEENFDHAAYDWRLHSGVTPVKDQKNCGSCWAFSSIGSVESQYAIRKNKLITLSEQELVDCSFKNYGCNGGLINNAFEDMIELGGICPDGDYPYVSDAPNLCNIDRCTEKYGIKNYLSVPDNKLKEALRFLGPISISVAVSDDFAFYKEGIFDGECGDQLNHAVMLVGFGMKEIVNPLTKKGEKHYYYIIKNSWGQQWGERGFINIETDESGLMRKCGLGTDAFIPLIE
# ASSAY INFO: Inhibition of Plasmodium falciparum recombinant falcipain-2
Provide the recorded Kinact for the entries that follow.
Give bare numbers, in min⁻¹.

Examples from the recorded data:
1) CS(=O)(=O)/C=C/CNC(=O)CN1C(=O)[C@@H](COC(=O)Nc2ccc(Cl)cc2C(F)(F)F)N=C(c2ccccc2)c2ccccc21: 0.059
2) CCS(=O)(=O)/C=C/CNC(=O)CN1C(=O)[C@@H](COC(=O)Nc2ccc(Cl)cc2C(F)(F)F)N=C(c2ccccc2)c2ccccc21: 0.027

// query Kinact value for entry `O=C(CN1C(=O)[C@@H](COC(=O)Nc2ccc(Cl)cc2C(F)(F)F)N=C(c2ccccc2)c2ccccc21)NC/C=C/S(=O)(=O)c1ccccc1`
0.033
